# procedure.summary: Phase I single ascending dose study, pharmacokinetics of P5P enteric-coated tablet
# Assay type: in vivo, healthy subjects
# protocol.conditions: both sexes, human; single oral dose 750 mg, fasting, baseline-corrected plasma P5P
quantity.name: AUC(0-t) (ng·h/mL)
# number only, unit ng·h/mL dropped from output

Please list AUC(0-t) recorded for the molecule Cc1ncc(COP(=O)(O)O)c(C=O)c1O [P5P]
12800

* * *

# procedure.summary: Phase I single ascending dose study, pharmacokinetics of P5P enteric-coated tablet
# Format: in vivo, healthy subjects
# protocol.conditions: both sexes, human; single oral dose 1000 mg, fasting, baseline-corrected plasma P5P
quantity.name: AUC(0-t) (ng·h/mL)
Only the number, expressed in ng·h/mL, is required.

Give the reported value of AUC(0-t) for this record: `Cc1ncc(COP(=O)(O)O)c(C=O)c1O`
5900

* * *

# procedure.summary: Phase I single ascending dose study, pharmacokinetics of P5P enteric-coated tablet
# Type: in vivo, healthy subjects
# protocol.conditions: both sexes, human, plasma; single oral dose 750 mg, fasting, baseline-corrected
quantity.name: Cmax
Enter the number, and then the unit.

Kindly indicate its recorded Cmax. Item: `Cc1ncc(COP(=O)(O)O)c(C=O)c1O`
3900 ng/mL

* * *

# procedure.summary: Phase I single ascending dose study, pharmacokinetics of P5P enteric-coated tablet
# Type: in vivo, healthy subjects
# protocol.conditions: both sexes, human; single oral dose 250 mg, fasting, baseline-corrected plasma P5P
quantity.name: AUC(0-t)
Please append the unit to your numeric answer.

Name the recorded AUC(0-t) of the compound listed here: `Cc1ncc(COP(=O)(O)O)c(C=O)c1O`
2600 ng·h/mL
